Molecular target: Cytochrome P450 2C9 (Homo sapiens) (UniProt P11712)
Sequence (P11712 whole entry, looked up): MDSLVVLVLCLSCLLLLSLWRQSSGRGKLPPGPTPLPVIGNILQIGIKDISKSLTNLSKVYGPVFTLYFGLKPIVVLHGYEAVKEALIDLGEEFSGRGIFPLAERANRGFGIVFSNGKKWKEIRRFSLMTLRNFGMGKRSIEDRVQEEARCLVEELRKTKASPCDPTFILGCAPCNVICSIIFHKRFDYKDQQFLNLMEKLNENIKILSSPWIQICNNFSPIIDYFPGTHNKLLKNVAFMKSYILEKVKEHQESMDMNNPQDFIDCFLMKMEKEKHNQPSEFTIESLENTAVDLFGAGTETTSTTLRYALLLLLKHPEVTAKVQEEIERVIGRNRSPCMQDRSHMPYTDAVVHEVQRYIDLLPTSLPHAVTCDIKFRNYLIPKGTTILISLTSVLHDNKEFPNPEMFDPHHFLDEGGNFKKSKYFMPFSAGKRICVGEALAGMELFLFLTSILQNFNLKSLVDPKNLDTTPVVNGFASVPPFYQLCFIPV
Assay: Cytochrome panel assay with activity outcomes; note: % is set by controls: 0 for no effect and ±100 for the full control effect
Settings: recombinant CYP, pro-luciferin dealkylation, luminescence, p450-cyp2c9; series mostly up to 57.1 µM
The campaign covered roughly 16,000 compounds. About 4,000 (25%) were called active. Inconclusive results (about 26%) are left out. The list is a sample of the results.
endpoint: activity, negative = inhibition

# compound-smiles, system, activity, negative = inhibition
records = [
    ("CC(=O)OC[C@H]1O[C@@H](O/N=C\\[C@@H](C)[C@H](OCc2ccccc2)C(C)C)[C@H](OC(C)=O)[C@@H](OC(C)=O)[C@H]1OC(C)=O", "Cytochrome P450 2C9 (Homo sapiens) (UniProt P11712)", "1.31% [at 11.4 µM] (inactive)"),
    ("FC(F)(F)c1ccccc1-c1nc(NC2CC2)c2ccccc2n1", "Cytochrome P450 2C9 (Homo sapiens) (UniProt P11712)", "12.1% [at 2.29 µM] (inactive)"),
    ("CCc1cc2c(nc1CC)CCN(CC/C(C)=N/OC[C@@H](C)[C@H](OCc1ccccc1)C(C)C)C2", "Cytochrome P450 2C9 (Homo sapiens) (UniProt P11712)", "-5.74% [at 11.4 µM] (inactive)"),
]

Quick one: give me activity, negative = inhibition for each item below, same order please.
1. COc1ccccc1-c1cc(Nc2ccc(F)cc2)ncn1
2. Cc1noc(C)c1-c1nccc(NCCN2CCOCC2)n1
3. CSc1ccc(NC(=O)Nc2cc(C)ccn2)cc1
4. CSc1ncnc2c1ncn2[C@@H]1O[C@@H](CO)[C@H](O)O[C@@H]1O
5. O=C(O)c1ccc(C(=O)c2ccccc2)c(C(=O)O)c1
6. CN(C)Cc1ccccc1-c1nccc(NCc2cccs2)n1
7. O=C(O)[C@@H]1CCCN1

1: -2.06% [at 2.29 µM] (inactive); 2: 3.29% [at 2.29 µM] (inactive); 3: -15.6% [at 11.4 µM] (inactive); 4: 1.22% [at 11.4 µM] (inactive); 5: 21.8% [at 11.4 µM] (inactive); 6: 13.4% [at 2.29 µM] (inactive); 7: 1.2% [at 11.4 µM] (inactive)

Quick one: give me activity, negative = inhibition for each item below, same order please.
1. C[C@@H](N1CCOCC1)[C@@](O)(c1ccccc1)c1ccccn1
2. O=C1C=C(Nc2nc(C(=O)O)cc(=O)[nH]2)c2ccccc2C1=O
3. Cc1cnc(CNc2ncncc2-c2c(C)noc2C)cn1
4. O=C(O)CC1(C(=O)O)CCCCC1
5. Cc1cc(N)c2cc(NC(=O)Nc3ccc4nc(C)cc(N)c4c3)ccc2n1

["16.5% [at 11.4 µM] (inactive)", "8.04% [at 11.4 µM] (inactive)", "17.1% [at 2.29 µM] (inactive)", "-2.68% [at 11.4 µM] (inactive)", "-18.2% [at 11.4 µM] (inactive)"]

Quick one: give me activity, negative = inhibition for each item below, same order please.
1. c1ccc(Nc2ncnc3ccc(-c4ccoc4)cc23)cc1
2. O=C(O)C1(C(=O)O)CCN(S(=O)(=O)c2ccccc2)CC1
3. NC(N)=N/N=C(\c1ccc(Cl)cc1)C1CC1
4. CC(C)(C)C(=O)[C@H]([C@@H](c1ccccc1)N1CCOCC1)N1CCOCC1

1: 1.19% [at 2.29 µM] (inactive); 2: -9.03% [at 11.4 µM] (inactive); 3: -1.67% [at 11.4 µM] (inactive); 4: 3.46% [at 11.4 µM] (inactive)
